- test.description: Permeability across apical to basolateral side in human Caco2 cells
- Assay type: ADME, cell-based
- test.conditions: Caco-2, read-out: permeability
experimental.readout: Papp A→B (×10⁻⁶ cm/s)

// below: answered compounds
# smiles.data, Papp A→B (×10⁻⁶ cm/s)
rows = [
    ("C[C@@H]1CCN(C(=O)Nc2nc3c(s2)-c2nc(C(C)(C)C)ncc2CC3)[C@@H]1C(N)=O", 3.4),
    ("Cc1nc(NC(=O)N2CCC[C@H]2C(N)=O)sc1-c1ccnc(C(C)(C)C(F)(F)F)c1", 3.8),
    ("CC(C)(C)c1nc2c(s1)CCc1nc(NC(=O)N3CCC[C@@]3(C)C(N)=O)sc1-2", 12.1),
]

a = Cc1nc(NC(=O)N2CCC[C@H]2C(N)=O)sc1-c1csc(C(C)(C)C)n1
b = CN(C)C[C@@H]1CCN(C(=O)Nc2nc3c(s2)-c2nc(C(C)(C)C)sc2CC3)[C@@H]1C(N)=O
c = CC(C)(C)c1ncc2c(n1)-c1sc(NC(=O)N3CCC[C@@]3(C)C(N)=O)nc1CC2
d = CN(C)C[C@@]1(C(N)=O)CCCN1C(=O)Nc1nc2c(s1)-c1nc(C(C)(C)C)ncc1CC2
Rank by Papp A→B (largest to smallest). # the answer lists labels in the order requested
a, d, c, b
